System tested: Thymidylate synthase (Homo sapiens)
Sequence (P04818 whole entry): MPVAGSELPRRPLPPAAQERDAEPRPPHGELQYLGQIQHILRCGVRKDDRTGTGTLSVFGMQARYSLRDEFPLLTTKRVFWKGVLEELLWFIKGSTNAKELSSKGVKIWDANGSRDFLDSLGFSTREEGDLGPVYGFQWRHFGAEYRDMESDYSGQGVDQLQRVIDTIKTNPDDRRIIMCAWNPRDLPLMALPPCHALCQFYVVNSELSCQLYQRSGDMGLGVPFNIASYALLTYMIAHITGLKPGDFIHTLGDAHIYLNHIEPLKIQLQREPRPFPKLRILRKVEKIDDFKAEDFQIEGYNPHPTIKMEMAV
Protocol details: The compound was tested for its inhibitory activity against thymidylate synthase(TS) derived from K562 cells.
Type: cell-based
Measured quantity: pIC50
The scale used: pIC50 is minus the common logarithm of the concentration in molar units.

Query: What value of pIC50 has been reported for the following compound? C#CCN(Cc1ccc2nc(N)nc(O)c2n1)c1ccc(C(=O)NC(CCC(=O)O)C(=O)O)cc1 (stereo unspecified)
Reply: 5.62

----------
Dihydrofolate reductase (Mus musculus) measurements of Ki, listed per entry.
Sequence (P00375 whole entry): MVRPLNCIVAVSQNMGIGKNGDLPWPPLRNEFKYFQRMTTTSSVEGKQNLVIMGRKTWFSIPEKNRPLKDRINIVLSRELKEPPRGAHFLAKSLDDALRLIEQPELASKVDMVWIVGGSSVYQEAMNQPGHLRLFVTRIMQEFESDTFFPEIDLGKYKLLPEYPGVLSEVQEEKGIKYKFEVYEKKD
# include the unit after the value

C#CCN(Cc1cnc2nc(N)nc(N)c2c1C)c1ccc(C(=O)NC(CCC(=O)O)C(=O)O)cc1 (configuration not stated)
6.87 pM

# input for lookup
Query: What value of Ki has been reported for the following molecule? C#CCN(Cc1cnc2nc(N)nc(N)c2c1)c1ccc(C(=O)NC(CCC(=O)O)C(=O)O)cc1 (configuration not stated)
Reply: 5.85 pM

----------
Test system: HL-60
Protocol details: The compound was tested for its growth inhibitory activity against HL60 cells.
Format: functional, cell-based
Applied conditions: Homo sapiens
Measured quantity: IC50 (µM)
The response must be a number in µM with no trailing unit.

C#CCN(Cc1cnc2nc(N)nc(O)c2c1)c1ccc(C(=O)NC(CCC(=O)O)C(=O)O)cc1 (configuration not stated)
0.721

# input for lookup
Query: What value of IC50 has been reported for the following compound? C#CCN(Cc1ccc2[nH]c(N)nc(=O)c2c1)c1ccc(C(=O)NC(CCC(=O)O)C(=O)O)cc1 (configuration not stated)
Reply: 5.29

----------
Tested on: CCRF S-180
Protocol details: The compound was tested for its growth inhibitory activity against S180 cells.
Type: functional, cell-based
Applied conditions: Mus musculus
Readings of IC50 for the listed compounds
The response must be a number in nM with no trailing unit.

C#CCN(Cc1ccc2[nH]c(N)nc(=O)c2c1)c1ccc(C(=O)NC(CCC(=O)O)C(=O)O)cc1 (configuration not stated)
1970

# input for lookup
Query: Value wanted: IC50 (CCRF S-180) of entry C#CCN(Cc1cnc2nc(N)nc(O)c2c1)c1ccc(C(=O)NC(CCC(=O)O)C(=O)O)cc1 (configuration not stated)
Reply: 2350
